Assay Target: UniProtKB P22607
Sequence (P22607 23-806, species assumed): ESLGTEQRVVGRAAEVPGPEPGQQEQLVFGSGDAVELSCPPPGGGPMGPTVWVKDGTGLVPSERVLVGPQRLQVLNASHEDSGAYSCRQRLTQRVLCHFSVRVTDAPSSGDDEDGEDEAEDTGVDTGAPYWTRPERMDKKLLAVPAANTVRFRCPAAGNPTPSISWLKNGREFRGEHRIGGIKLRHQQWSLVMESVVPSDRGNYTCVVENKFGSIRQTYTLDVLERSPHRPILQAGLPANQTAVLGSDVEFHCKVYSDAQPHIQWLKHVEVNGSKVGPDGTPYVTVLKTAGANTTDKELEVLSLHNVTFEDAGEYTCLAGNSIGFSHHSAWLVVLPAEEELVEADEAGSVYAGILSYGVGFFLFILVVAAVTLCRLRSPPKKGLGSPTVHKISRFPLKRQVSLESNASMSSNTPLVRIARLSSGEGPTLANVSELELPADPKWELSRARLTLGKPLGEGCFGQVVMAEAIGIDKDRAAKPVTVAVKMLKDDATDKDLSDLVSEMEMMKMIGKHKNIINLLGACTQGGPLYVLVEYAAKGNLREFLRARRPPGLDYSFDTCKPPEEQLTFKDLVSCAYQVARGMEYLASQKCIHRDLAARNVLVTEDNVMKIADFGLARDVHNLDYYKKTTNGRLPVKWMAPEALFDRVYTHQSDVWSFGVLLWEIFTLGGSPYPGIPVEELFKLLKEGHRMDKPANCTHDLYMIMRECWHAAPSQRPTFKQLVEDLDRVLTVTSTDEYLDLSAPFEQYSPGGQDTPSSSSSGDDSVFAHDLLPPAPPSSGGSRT
Assay Protocol: Biochemical kinase assay, FGFR3
Reported Metric: IC50

Fill blank: measured IC50 of the compound "Nc1cc(C(F)(F)F)c(-c2cc(N3CCOCC3)nc(N3CCOCC3)n2)cn1" is ____.
> 10 µM

---

Assay Target: KDR (Homo sapiens, UniProt P35968)
Sequence (P35968 20-1356, species assumed): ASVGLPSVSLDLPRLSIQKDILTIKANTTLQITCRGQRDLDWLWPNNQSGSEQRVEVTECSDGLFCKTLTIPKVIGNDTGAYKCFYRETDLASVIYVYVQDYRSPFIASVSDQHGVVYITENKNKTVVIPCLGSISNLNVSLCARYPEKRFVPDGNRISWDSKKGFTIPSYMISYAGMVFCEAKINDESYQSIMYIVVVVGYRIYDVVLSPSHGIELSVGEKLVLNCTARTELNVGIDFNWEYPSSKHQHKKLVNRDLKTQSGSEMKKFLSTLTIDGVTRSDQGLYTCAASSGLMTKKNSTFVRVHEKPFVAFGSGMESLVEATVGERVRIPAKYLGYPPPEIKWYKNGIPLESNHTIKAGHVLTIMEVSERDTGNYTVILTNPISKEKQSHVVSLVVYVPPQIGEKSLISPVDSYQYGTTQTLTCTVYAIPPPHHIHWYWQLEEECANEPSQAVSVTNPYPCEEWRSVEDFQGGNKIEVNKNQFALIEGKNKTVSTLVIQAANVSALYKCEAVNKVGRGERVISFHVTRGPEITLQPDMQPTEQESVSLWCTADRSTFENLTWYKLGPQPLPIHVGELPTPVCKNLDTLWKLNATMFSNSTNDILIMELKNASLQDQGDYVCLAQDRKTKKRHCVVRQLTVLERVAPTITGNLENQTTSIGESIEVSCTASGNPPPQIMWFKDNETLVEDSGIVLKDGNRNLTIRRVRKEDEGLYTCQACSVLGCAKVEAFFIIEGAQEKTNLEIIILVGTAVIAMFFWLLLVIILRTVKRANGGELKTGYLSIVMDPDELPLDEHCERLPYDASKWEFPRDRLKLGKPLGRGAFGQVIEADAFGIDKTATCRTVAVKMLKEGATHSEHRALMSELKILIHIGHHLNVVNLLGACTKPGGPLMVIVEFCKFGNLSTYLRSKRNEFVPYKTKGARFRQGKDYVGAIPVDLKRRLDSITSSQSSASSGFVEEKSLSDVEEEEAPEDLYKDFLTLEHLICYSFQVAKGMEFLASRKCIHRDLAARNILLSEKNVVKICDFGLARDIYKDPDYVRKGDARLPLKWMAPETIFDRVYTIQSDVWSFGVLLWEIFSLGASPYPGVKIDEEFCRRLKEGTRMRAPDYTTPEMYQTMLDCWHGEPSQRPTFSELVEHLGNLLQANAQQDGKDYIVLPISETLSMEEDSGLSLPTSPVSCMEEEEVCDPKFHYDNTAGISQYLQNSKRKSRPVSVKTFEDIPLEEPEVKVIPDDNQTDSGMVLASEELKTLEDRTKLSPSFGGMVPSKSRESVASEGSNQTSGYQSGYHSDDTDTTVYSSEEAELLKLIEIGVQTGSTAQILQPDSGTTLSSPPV
Assay Protocol: Biochemical kinase assay, KDR
Reported Metric: IC50

Which measured IC50 value corresponds to "Nc1cc(C(F)(F)F)c(-c2cc(N3CCOCC3)nc(N3CCOCC3)n2)cn1" ?
> 10 µM

---

Test system: phosphorylation of Akt
Assay Protocol: Inhibition of Akt phosphorylation by immunoblot in U87MG and LN18 cells
Protocol Conditions: Homo sapiens, read-out: IC50 for inhibiting phosphorylation of Akt
pIC50: −log10 of the molar value.
Reported Metric: pIC50

Field: pIC50 (phosphorylation of Akt). Entry: "Nc1cc(C(F)(F)F)c(-c2cc(N3CCOCC3)nc(N3CCOCC3)n2)cn1"
6.00 to 6.30

---

Assay Target: PDK1 (Homo sapiens, UniProt O15530)
Sequence (O15530 whole entry): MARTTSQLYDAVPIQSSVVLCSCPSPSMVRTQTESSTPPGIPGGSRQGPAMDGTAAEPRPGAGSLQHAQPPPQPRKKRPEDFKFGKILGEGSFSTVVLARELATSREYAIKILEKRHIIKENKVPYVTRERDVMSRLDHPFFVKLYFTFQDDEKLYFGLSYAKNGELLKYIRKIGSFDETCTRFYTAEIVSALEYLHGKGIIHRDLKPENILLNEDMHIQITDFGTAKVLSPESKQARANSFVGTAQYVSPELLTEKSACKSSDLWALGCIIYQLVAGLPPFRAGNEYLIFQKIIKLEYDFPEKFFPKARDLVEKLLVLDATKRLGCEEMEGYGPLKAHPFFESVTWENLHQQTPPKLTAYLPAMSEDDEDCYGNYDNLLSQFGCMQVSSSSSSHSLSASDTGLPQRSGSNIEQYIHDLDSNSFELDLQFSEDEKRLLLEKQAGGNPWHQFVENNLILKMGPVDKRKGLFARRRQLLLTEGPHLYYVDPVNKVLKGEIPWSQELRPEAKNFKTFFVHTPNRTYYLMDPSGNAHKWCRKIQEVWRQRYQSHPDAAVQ
Assay Protocol: Biochemical kinase assay, PDK1
Reported Metric: IC50

Hello, I am looking for reported IC50 with PDK1 (Homo sapiens, UniProt O15530) for "Nc1cc(C(F)(F)F)c(-c2cc(N3CCOCC3)nc(N3CCOCC3)n2)cn1" . Could you help?
> 10 µM

---

Assay Target: c-Met (Homo sapiens, UniProt P08581)
Sequence (P08581 25-1390): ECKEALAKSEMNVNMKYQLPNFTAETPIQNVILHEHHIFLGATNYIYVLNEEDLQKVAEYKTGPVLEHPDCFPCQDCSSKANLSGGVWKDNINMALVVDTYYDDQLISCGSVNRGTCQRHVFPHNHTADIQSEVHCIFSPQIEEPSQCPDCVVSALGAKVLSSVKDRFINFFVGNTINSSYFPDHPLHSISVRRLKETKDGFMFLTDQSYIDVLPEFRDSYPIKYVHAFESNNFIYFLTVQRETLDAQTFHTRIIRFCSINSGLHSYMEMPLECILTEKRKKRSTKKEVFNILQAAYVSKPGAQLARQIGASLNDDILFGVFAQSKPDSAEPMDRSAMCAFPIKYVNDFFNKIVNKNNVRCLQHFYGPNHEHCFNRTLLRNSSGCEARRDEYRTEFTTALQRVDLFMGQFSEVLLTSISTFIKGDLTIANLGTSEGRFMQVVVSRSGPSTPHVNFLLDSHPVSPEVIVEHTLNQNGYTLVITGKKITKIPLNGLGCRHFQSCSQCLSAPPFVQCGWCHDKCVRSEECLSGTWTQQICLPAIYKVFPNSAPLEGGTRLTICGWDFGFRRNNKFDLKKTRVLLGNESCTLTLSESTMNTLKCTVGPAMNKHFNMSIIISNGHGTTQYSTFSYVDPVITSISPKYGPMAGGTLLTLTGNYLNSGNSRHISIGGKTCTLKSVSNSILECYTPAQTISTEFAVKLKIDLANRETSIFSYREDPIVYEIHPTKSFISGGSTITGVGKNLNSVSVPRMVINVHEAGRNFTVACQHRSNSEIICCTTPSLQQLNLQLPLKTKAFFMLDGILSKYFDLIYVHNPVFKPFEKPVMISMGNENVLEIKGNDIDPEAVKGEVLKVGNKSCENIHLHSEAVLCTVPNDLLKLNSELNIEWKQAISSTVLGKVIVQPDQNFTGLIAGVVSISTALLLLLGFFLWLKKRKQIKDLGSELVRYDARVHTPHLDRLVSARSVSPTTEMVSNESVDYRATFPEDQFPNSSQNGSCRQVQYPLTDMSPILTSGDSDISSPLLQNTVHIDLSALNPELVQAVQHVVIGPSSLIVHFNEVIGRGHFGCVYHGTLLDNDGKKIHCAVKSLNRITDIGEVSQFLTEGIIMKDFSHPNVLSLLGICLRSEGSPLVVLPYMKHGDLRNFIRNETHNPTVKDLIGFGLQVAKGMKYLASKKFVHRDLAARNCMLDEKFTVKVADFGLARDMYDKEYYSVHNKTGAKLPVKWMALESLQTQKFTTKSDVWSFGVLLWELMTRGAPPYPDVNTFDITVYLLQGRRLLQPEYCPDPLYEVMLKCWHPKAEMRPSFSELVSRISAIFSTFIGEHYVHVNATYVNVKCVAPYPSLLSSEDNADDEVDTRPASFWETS
pIC50: −log10 of the molar value.
Reported Metric: pIC50

Provide value of pIC50 for this record tested with c-Met (Homo sapiens, UniProt P08581): "Nc1cc(C(F)(F)F)c(-c2cc(N3CCOCC3)nc(N3CCOCC3)n2)cn1"
< 5.00
